test system: SW-620; test: NCI tumour cell line growth inhibition, 48 h
Activity calls are given as the source filed them. Rule as the data show it: active = GI50 up to about 1.1 µM and inactive = higher.
Outcomes: active, inactive

Cn1c(=O)c2nc3c(=O)n(C)c(=O)n(CC(N)=O)c3nc2n(C)c1=O: inactive
O=C(C1C(c2ccccc2)N1C(c1ccccc1)c1ccccc1)C1C(c2ccccc2)N1C(c1ccccc1)c1ccccc1 (stereo unspecified): inactive
O=C(c1ccccc1)c1c(CC(O)c2ccccc2)n(C(=O)c2ccccc2)c2ccccc12 (stereo unspecified): inactive
COc1ccc(CCc2ccc3c(c2)OCO3)cc1: inactive
Cc1nc2ccc(F)cc2c2c1CCO2: inactive
CC(C)c1oc(=O)cc2c1C(O)C1OC(=O)C3(C)C(O)C4OC4C2(C)C13 (stereo unspecified): inactive
CN(c1ccc(Cl)cc1)S(=O)(=O)c1ccc([N+](=O)[O-])cc1: inactive
CS(=O)(=O)OCCCNCCCOS(C)(=O)=O: inactive
O=C1c2ccccc2-c2nnc(-c3ccccc3)cc21: inactive
CC(=O)N1N=C(c2cc(C)ccc2O)CC1c1cccc(Cl)c1 (stereo unspecified): inactive
Nc1c2c(nc3cc(F)c(F)cc13)CCC2: inactive
CSc1ccc2c(cc1=O)[C@@H](NC(=O)c1cccc([N+](=O)[O-])c1)CCc1cc(O)c(O)c(O)c1-2: inactive
C/C(Cl)=N\OC(=O)Nc1ccc(C)cc1: inactive
C/C=C(\C)C(=O)OC1C2C(C)=CC(=O)C(O)C2(C)C2C3(O)OCC24C1OC(=O)C(OC(C)=O)C4C(C)C3O (stereo unspecified): active
CC(NO)/C(=N/O)c1ccco1 (stereo unspecified): inactive
O=C(N/C(=C/c1ccc(Cl)cc1)c1nc2ccccc2c(=O)n1Nc1ccc([N+](=O)[O-])cc1[N+](=O)[O-])c1ccccc1: inactive
O=C1c2ccccc2C(O)(C(=O)O)C1(O)CC=C(Cl)Cl (stereo unspecified): inactive
CCOC(CN(C)C(=O)Nc1ccc(Cl)c(Cl)c1)OCC: inactive
CP(=O)(O)C(N)c1ccccc1 (stereo unspecified): inactive
CC(=O)[C@H]1CC[C@@H]2[C@]1(C)CC=C1[C@]23C=C[C@]2(C[C@@H](O)CC[C@]12C)C(C(=O)O)C3C(=O)O (stereo partly specified): inactive
CC(C)(C)O/N=C/c1cc(NC(=S)c2ccsc2)ccc1Cl: inactive

###

system: CAKI-1; assay: NCI tumour cell line growth inhibition, 48 h
Calls of active or inactive are those of the source. Rule as the data show it: active = GI50 up to about 1.1 µM and inactive = higher.
GI50 overview
measured-metric: GI50

Sc1ncnc2c1ncn2Cc1ccco1: > 100 µM (inactive)
Oc1nc(-c2ccc3ccccc3c2)nc2ccccc12: 75 µM (inactive)
CCOC(=O)CSC(=O)NCCCl: > 100 µM (inactive)
NC(=O)c1cc([N+](=O)[O-])cc([N+](=O)[O-])c1 [NITROMIDE]: > 100 µM (inactive)
COc1ccc(N(c2ccc(C#N)cc2)c2ccc(C#N)cc2)cc1: > 100 µM (inactive)
O=[N+]([O-])c1ccc(N/N=C2/CC3=C2CCCCCCCCCC3)c([N+](=O)[O-])c1: > 100 µM (inactive)
CN1C(=O)[C@@H]2[C@@H]3c4ccccc4N(S(=O)(=O)C(F)(F)F)[C@@H]3c3[nH]c4ccccc4c3[C@@H]2C1=O: > 100 µM (inactive)
Cc1c2cc[n+](C)cc2c(C)c2c1[nH]c1ccc(OC(C)(C)C)cc12: > 100 µM (inactive)
CNC(=S)N/N=C(\C)c1nc2cccnc2[nH]1: 33.8 µM (inactive)
CCOC(=O)c1csc(NC(=O)C(C)N2CCCCC2)n1 (stereo unspecified): > 100 µM (inactive)
O=C1Nc2ccccc2C(=O)/C1=C/NC(=S)NCCc1ccccc1: > 100 µM (inactive)
CC(=O)OCCOCn1cnc2c(Cl)nc(Cl)nc21: 0.275 µM (active)
Oc1ccc(C(=C(Br)c2ccccc2)c2ccc(O)cc2)cc1: 16.6 µM (inactive)
OC1(c2ccccc2)CCCCCCCCC(O)(c2ccccc2)CCCCCCCC1 (stereo unspecified): > 100 µM (inactive)
CN(C)c1nc(-c2ccccc2)c(C(=O)c2c[nH]c3ccccc23)s1: 9.4 µM (inactive)
CCCCOC(C)(C)/C=C/C(O)[C@](C)(O)[C@H]1[C@H](O)C[C@@]2(C)[C@@H]3CCc4c(cc(OC5OC(CO)C(O)C(O)C5O)c(O)c4C)C3(C)C(=O)C[C@]12C (stereo partly specified): > 100 µM (inactive)
COc1ccc(N2C(=O)[C@@H]3[C@H](C2=O)c2[nH]c4ccccc4c2C2CCC(C(C)(C)C)C[C@@H]23)cc1 (stereo partly specified): 27.7 µM (inactive)
CCCCCCCC(=O)OCC1OC(n2cc(F)c(=O)[nH]c2=O)C(N)C(O)C1O (stereo unspecified): > 100 µM (inactive)
CSC1(SC2=NCCN2)SC2(NCCN2)S1: 13.6 µM (inactive)
O=S(=O)(Oc1ccc2ccccc2c1-c1c(OS(=O)(=O)C(F)(F)F)ccc2ccccc12)C(F)(F)F: > 100 µM (inactive)
Clc1ccc(OCc2nnc3sc(-c4ccc(-c5ccc(Cl)cc5Cl)o4)nn23)c(Cl)c1: 28.7 µM (inactive)
CCCCCCCCCCCCCCCCCc1nc(Cl)nc(Cl)c1Cl: > 100 µM (inactive)
CN(c1ccc(Cl)cc1)S(=O)(=O)c1ccc([N+](=O)[O-])cc1: > 100 µM (inactive)
Cc1ccc2c(c1)C(=O)C1(C2)Cc2ccc(C)cc2C1=O: > 100 µM (inactive)
CC(C)c1oc(=O)cc2c1C(O)C1OC(=O)C3(C)C(O)C4OC4C2(C)C13 (stereo unspecified): 2.08 µM (inactive)
CSS(C)(=O)=O: 22.8 µM (inactive)
Cc1c(S(=O)(=O)c2ccccc2)c(N)n(CCN(C)C)c1C: > 100 µM (inactive)
Cc1ccc(-c2cc(-c3ccc(Cl)cc3)nc(/N=C3\C(=O)N(CN4CCOCC4)c4ccccc43)n2)cc1: 32 µM (inactive)
C/C(=N\Nc1ccccc1Br)c1cccc(/C(C)=N/Nc2ccccc2Br)n1: 49 µM (inactive)
O=C1c2ccccc2-n2nnnc2C2CSCN12 (stereo unspecified): > 100 µM (inactive)
CN1CCOC1c1ccccc1O (stereo unspecified): > 100 µM (inactive)
CCOP(=O)(OCC)C(Nc1ccc(C(=O)O)cc1)c1ccc(C(Nc2ccc(C(=O)O)cc2)P(=O)(OCC)OCC)cc1 (stereo unspecified): > 100 µM (inactive)
CC1CNC(c2cccc(-c3nc(-c4cccc(C5=NC(C)CN5)c4)nc(N(C)C)n3)c2)=N1 (stereo unspecified): 18.1 µM (inactive)
CC1(C)N=C(N)N=C(N)N1c1ccc(CCc2ccccc2)cc1: 21.6 µM (inactive)
CC1(C)C=CC(=O)C(O)C(C)(C)C1=O (stereo unspecified): > 100 µM (inactive)
O=[N+]([O-])c1nccn1CCCNc1ccnc2cc(Cl)ccc12: > 5.93 µM (inactive)

###

tested on: UACC-62; experiment: NCI tumour cell line growth inhibition, 48 h
The source made the active and inactive calls. Rule as the data show it: active = GI50 up to about 1.1 µM and inactive = higher.
Outcome codes: y (active), n (inactive)

O=C1N=CN=C2C=CC(Cl)=C(I)C12 (stereo unspecified): n
Oc1cc(-c2ccccn2)nc2cc(F)ccc12: n
C/C(=N\Nc1nc2ccccc2s1)c1cc2ccccc2cn1: n
Cc1ccnn1CCc1ccc(Cl)cc1Cl: n
CN(C)CC1(C)CC/C(=C\c2ccccc2)C1=O (stereo unspecified): n
CC1(C)NC(C)(C)/C(=N\O)C(=NO)/C1=N/O: n
C=C1c2nc3ccccc3n2C=C(c2ccccc2)N1c1ccccc1: n
COc1cc(OC2OC(CO)C(O)C(O)C2O)c2c(O)c3c(=O)cc(C)oc3cc2c1 (stereo unspecified): n
COc1cc2c(c(OC)c1OC)-c1ccc(SC)c(=O)cc1C(CC(=O)Oc1ccccc1F)C2 (stereo unspecified): y
CC(=O)[C@H]1CC[C@@H]2[C@]1(C)CC=C1[C@]23C=C[C@]2(C[C@@H](O)CC[C@]12C)C(C(=O)O)C3C(=O)O (stereo partly specified): n
S=c1nc(N2CCCCC2)ss1: n

###

test system: KM-20L2; test: NCI tumour cell line growth inhibition, 48 h
Calls of active or inactive are those of the source. No stated cut-off is given here; in the data, active = GI50 up to about 1.1 µM and inactive = higher.
Possible outcomes: active, inactive

Nc1nc(CCc2n[nH]c(N)n2)n[nH]1: inactive
Cc1c(CCO)c(O)n2c(nc3ccccc32)c1C#N: inactive
COC(=O)c1sc(=O)n(-c2ccccc2)c1SCc1ccccc1: inactive
CC1=C(C(=O)NCc2ccccc2)C(c2ccco2)C(C(=O)NCc2ccccc2)=C(C)N1: inactive
CC(=O)NC1C(OCc2ccccc2)OC(COC(=O)CCCCCCCCCCNc2ccc([N+](=O)[O-])c3[nH]c4ccccc4c(=O)c23)C(O)C1OC(C)C(=O)NC(C)C(=O)NC(CCC(N)=O)C(=O)OCc1ccccc1 (centres undefined): inactive
O=S(=O)(c1ccccc1)N1CCC1c1ccccc1 (centres undefined): inactive
CC(C)[C@H](CCl)NC(=O)c1cccc(C(=O)N[C@H](CCl)C(C)C)n1 (stereo in doubt): inactive
COc1ccc(C(=O)C(C(=O)C(=O)NC2C3CC4CC(C3)CC2C4)c2ccc(OC)cc2)cc1 (centres undefined): inactive
CCOC(=O)C1(C#N)C(c2ccccc2)CC(O)(c2ccc(Cl)cc2)C(C(=O)c2ccc(Cl)cc2)C1c1ccccc1 (centres undefined): inactive
Cc1ccc(Oc2ccc(C(=O)c3cccc(C(=O)c4ccc(Oc5ccc(C)cc5)cc4)n3)cc2)cc1: inactive
CCN(CC)c1ccc(C(=C2C=CC(=[N+](CC)CC)C=C2)c2ccc(N(CC)CC)cc2)cc1: active
NC(=S)NNC(=O)CCC(=O)Nc1ccc(Cl)cc1Cl: inactive
C/C(=N\NC(=O)CC(=O)Nc1ccc(Cl)cc1)c1cc2ccccc2oc1=O: inactive
CC(C)CCCC(C)[C@H]1CCC(C2C[C@@H](O)[C@@H]3CC(O)[C@@H](O)C[C@]3(CO)C2=O)[C@]1(C)CCO (some centres undefined): inactive
CC(C)c1oc(=O)cc2c1C(O)C1OC(=O)C3(C)C(O)C4OC4C2(C)C13 (centres undefined) [NAGILACTONE]: inactive
O=C(CC1C(=O)Nc2ccccc2[S+]1[O-])Nc1ccccc1 (centres undefined): inactive
COC(=O)N/N=C/C(=C/Nc1ccccc1)[N+](=O)[O-]: inactive
COC(=O)C1=C(C)N2CCOC2CC1c1ccccc1 (centres undefined): inactive
CC1CC(C)(O)C2C3(C)CCCC2(COC3=O)C12CCC1(CCOC1=O)O2 (centres undefined): inactive

These measurements were taken from ChEMBL document CHEMBL1201862.
